Listed next: entries and their corresponding zone score, E. faecalis CL 4877.
system: E. faecalis (CL 4877); assay: Zone of inhibition screen, 96 well agar array format; type: cell-based; set-up: scale not given here; settings: zone of inhibition relative to 1 mg/ml stock solution of p-chlorobiphenylvancomycin
parameter.measured: zone score, E. faecalis CL 4877

molecule="CC(=O)CC(=O)NCC(=O)N[C@H]1C(=O)N[C@@H](CC(N)=O)C(=O)N[C@H]2C(=O)NC3C(=O)N[C@H](C(=O)N[C@@H](C(=O)O)c4cc(O)cc(O)c4-c4cc3ccc4O)[C@H](O)c3ccc(c(Cl)c3)Oc3cc2cc(c3OC2OC(CO)C(O)C(O)C2OC2CC(C)(NCc3ccc(-c4ccc(Cl)cc4)cc3)C(O)C(C)O2)Oc2ccc(cc2Cl)[C@H]1O (stereo partly drawn)" parameter_measured="zone score, E. faecalis CL 4877" experimental_result=2
molecule="CC(C)C(NC(=O)CN)C(=O)NC1C(=O)NC(CC(N)=O)C(=O)NC2C(=O)NC3C(=O)NC(C(=O)NC(C(=O)O)c4cc(O)cc(O)c4-c4cc3ccc4O)C(O)c3ccc(c(Cl)c3)Oc3cc2cc(c3OC2OC(CO)C(O)C(O)C2OC2CC(C)(NCc3ccc(-c4ccc(Cl)cc4)cc3)C(O)C(C)O2)Oc2ccc(cc2Cl)C1O (stereo not drawn)" parameter_measured="zone score, E. faecalis CL 4877" experimental_result=2
molecule="CC1OC(OC2C(Oc3c4cc5cc3Oc3ccc(cc3Cl)C(O)C3NC(=O)C(NC(=O)C5NC(=O)C(CC(N)=O)NC(=O)C(NC(=O)C(N)CO)C(O)c5ccc(c(Cl)c5)O4)c4ccc(O)c(c4)-c4c(O)cc(O)cc4C(C(=O)O)NC3=O)OC(CO)C(O)C2O)CC(C)(NCc2ccc(-c3ccc(Cl)cc3)cc2)C1O (stereo not drawn) [Compound 88]" parameter_measured="zone score, E. faecalis CL 4877" experimental_result=2
